# Experimental System: T1, rhesus monkey (Macaca mulatta) melanocortin-5 receptor (rhesus monkey (Macaca mulatta), UniProt P33032 1-325 (human entry))
# T1 construct: Full-length open reading frame (325 amino acids) in pcDNA3.neo, stably expressed in CHO dhfr- cells; assays on whole cells; also called rhMC-5R; rhesus MC-5R
# T1 chain: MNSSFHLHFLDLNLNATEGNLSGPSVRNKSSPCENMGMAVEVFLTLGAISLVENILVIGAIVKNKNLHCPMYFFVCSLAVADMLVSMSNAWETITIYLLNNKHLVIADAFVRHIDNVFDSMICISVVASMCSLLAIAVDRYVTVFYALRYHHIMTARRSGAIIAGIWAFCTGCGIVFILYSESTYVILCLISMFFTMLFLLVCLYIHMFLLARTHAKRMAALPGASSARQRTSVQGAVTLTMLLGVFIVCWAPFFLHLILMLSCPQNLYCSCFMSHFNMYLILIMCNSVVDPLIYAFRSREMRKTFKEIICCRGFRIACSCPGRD
# Protocol Description: displacement of 0.1 nM 125I-NDP-α-MSH from CHO cells stably expressing rhMC-5R
Reported Metric: IC50
Reply with the number and its unit after it.

Exercise: I would be grateful if you could share the reported IC50 for SYSMEHFRWGKPVGKKRRPVKVYP (peptide, UniProt P01189 138-161, looked up, range 138-161) [human ACTH(1-24)] .
Key: 15 nM

meta.source: patent US6645738B1
